Test system: UACC-257 melanoma
Assay: NCI-60 one-dose screen, 48 h (100 = growth as untreated, 0 = no growth, -100 = all killed)
Settings: 10 µM unless noted
This is part of a sample that, as a whole, favours compounds with a hit. Of some 83,000 tested, about 20% had one in any assay.
In this section, each of the molecules is paired with its reported growth.

| MOLECULE | growth (%) |
| --- | --- |
| CCN(CCC#N)c1ccccc1 | 119 |
| COc1ccc2nc(-c3ccc(-c4noc(-c5ccc(Cl)cc5)n4)cc3)[nH]c2c1 | 74.5 |
| COc1ccccc1/C=N\Nc1ccc([N+](=O)[O-])cn1 | 108 |
| Fc1ccc(-c2nc(-c3ccc(-c4nc5ccc(F)cc5[nH]4)cc3)no2)cc1 | 87.8 |
| ClCCn1cnc2c(SCc3ccccc3Cl)ncnc21 | 58.7 |
| O=C(c1ccccc1)c1cccc(C(Br)Br)c1 | 105 |
| Cc1nc(N)nc2c1CCC(Nc1ccccc1)S2 (stereo not given) | 101 |
| CCOC(=O)c1ccc(NC(=O)CSC(N)=O)cc1 | 107 |
| C/C(=N\NC(=O)CSc1nc2ccccc2c(=O)n1CCc1ccc(S(N)(=O)=O)cc1)c1ccc(Br)cc1 | 83.3 |
| COc1ccc([C@H]2c3[nH]c4ccccc4c3C[C@H]3C(=O)N(CCCCCCC(=O)NO)CC(=O)N23)cc1 | 27.7 |
| COc1cc(OC)c(Cl)cc1N | 111 |
| Nc1ccc(C2=NNC(=O)Cc3cc4c(cc32)OCCO4)cc1Cl | 72.7 |
| CC1CCCN(CCCCOc2ccc(-c3ccc(C#N)cc3)cc2)C1 (stereo not given) | 66.6 |
| O=C(CCl)Nc1cc(O)c2c(c1)C(=O)c1cccc(O)c1C2=O | 5.96 |
| CC(C)CC1NC(=O)C(CC(C)C)N(CO)C1=O (stereo not given) | 102 |
